The following molecules are listed with their measured Potency values.
biological target: Neuropeptide S receptor (Homo sapiens); test: Confirmation Concentration-Response Assay for Antagonists of the Neuropeptide S Receptor: Radioligand Displacement; details: CHO-hNPSR cells, [125I]Y10-NPS displacement, 1.5 h
Records with an inconclusive call do not appear. The source made the active and inactive calls.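 The calls were made as follows: active = compound pushes the radio-tagged natural neuropeptide S off its receptor in a binding test; inconclusive = any compound that did not displace the tagged ligand; inactive = never assigned.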

[
  {
    "MOLECULE": "CCOC(=O)C1CCCN(c2ncnc3c2oc2ccccc23)C1 (stereo unspecified)",
    "Potency": "26400 nM (active)"
  },
  {
    "MOLECULE": "COc1cccc(C2c3c(ncn(-c4ccccc4)c3=N)Oc3ccc4ccccc4c32)c1 (stereo unspecified)",
    "Potency": "266 nM (active)"
  },
  {
    "MOLECULE": "COc1cccc(C2c3c(ncn(CCN4CCOCC4)c3=N)Oc3ccc4ccccc4c32)c1 (stereo unspecified)",
    "Potency": "439 nM (active)"
  }
]

Ask | Specify measured Potency for O=C1OC(c2ccccc2)(c2ccccc2)N2CCN(C(=O)NCc3ccc(F)cc3)CC12 (stereo unspecified) .
Reply | 5.62 nM (active)

Ask | Report measured Potency; entry is N#CC1=C(NC=NCc2ccccc2)Oc2ccc3ccccc3c2C1c1ccccc1 (stereo unspecified)
Reply | 321 nM (active)

Ask | Return Potency for the following molecule: CCOC(=O)CC(=O)Nc1ncnc2c1C(c1ccccc1)c1c(ccc3ccccc13)O2 (stereo unspecified)
Reply | 616 nM (active)
